The following sequences are shown together with reported SH2 binding enrichment values.
# tgt: Grb2 SH2 (UniProt P62993)
# Sequence (P62993 whole entry, looked up): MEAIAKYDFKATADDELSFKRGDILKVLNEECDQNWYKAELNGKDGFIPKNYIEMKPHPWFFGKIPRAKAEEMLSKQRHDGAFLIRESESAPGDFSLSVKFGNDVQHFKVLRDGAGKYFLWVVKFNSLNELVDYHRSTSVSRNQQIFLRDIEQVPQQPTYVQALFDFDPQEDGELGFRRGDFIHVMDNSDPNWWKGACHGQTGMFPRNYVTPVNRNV
# assay.remarks: SH2 binding enrichment of the phosphorylated peptide, bacterial display (enrichment ratio); higher = better substrate or ligand; peptides without Tyr show the background
Respond using a number only.

>  <biosequence>
IRKVLYANNVM [ACTA1_Y296_D294V]

>  <tgt>
Grb2 SH2 (UniProt P62993)

>  <SH2 binding enrichment>
1.44

$$$$
>  <biosequence>
IGVGSYSVCKR [RPS6KA3_Y433]

>  <tgt>
Grb2 SH2 (UniProt P62993)

>  <SH2 binding enrichment>
0.867

$$$$
>  <biosequence>
NKFTTYLPWLP [C9orf24_Y126_R129W_YF]

>  <tgt>
Grb2 SH2 (UniProt P62993)

>  <SH2 binding enrichment>
1.19

$$$$
>  <biosequence>
AHLTEYLSTHY [UQCRC1_Y219_D215H]

>  <tgt>
Grb2 SH2 (UniProt P62993)

>  <SH2 binding enrichment>
0.845

$$$$
>  <biosequence>
PKDSAYVTWEP

>  <tgt>
Grb2 SH2 (UniProt P62993)

>  <SH2 binding enrichment>
0.938

$$$$

stdin: Item under review: SWKRRYFLLWA [APBB1IP_Y331_R335W] . Reported SH2 binding enrichment?
stdout: 0.684

stdin: Item under review: FSKQIYKGMVA [PCDH15_Y931_R929Q] . Reported SH2 binding enrichment?
stdout: 0.879

stdin: Item under review: VQDPAYLRDID [OPRK1_Y369] . Reported SH2 binding enrichment?
stdout: 1.14

---

The following sequences are shown together with reported phosphorylation enrichment values.
# Test system: c-Src
# assay.remarks: phosphorylation enrichment, bacterial display (enrichment ratio); higher = better substrate or ligand; peptides without Tyr show the background
Respond using a number only.

Sample answers from the record:
>  <biosequence>
VATRWYWSPEL [CDKL5_Y177_R178W]

>  <phosphorylation enrichment>
0.647

$$$$
>  <biosequence>
KYVVVYFRETD [IL17RB_Y447_I451T]

>  <phosphorylation enrichment>
0.491

$$$$
>  <biosequence>
LERYIYNPEEF [HLA-DPB1_Y59_R61P]

>  <phosphorylation enrichment>
3.71

$$$$
>  <biosequence>
TLGPFYPSRLF [CRYAA_Y18]

>  <phosphorylation enrichment>
0.44

$$$$
>  <biosequence>
IGEGTSGVVYK [CDK2_Y15_Y15S]

>  <phosphorylation enrichment>
0.29

$$$$
>  <biosequence>
EDASEYYENYI [PARP4_Y214_F215Y]

>  <phosphorylation enrichment>
1.02

$$$$
>  <biosequence>
KDQGTYEDYVE [MYL6_Y86]

>  <phosphorylation enrichment>
0.768

$$$$
>  <biosequence>
YPKAHYHWLVL [APTX_Y214_R213H]

>  <phosphorylation enrichment>
0.487

$$$$

stdin: Item under review: LNGDRYFKGIV [DCX_Y64_R59L] . Reported phosphorylation enrichment?
stdout: 0.626

stdin: Item under review: HSVLQYVGGVM [FGGY_Y136] . Reported phosphorylation enrichment?
stdout: 0.738

stdin: Item under review: TVSRPYSFIEF [SEC22B_Y110] . Reported phosphorylation enrichment?
stdout: 3.15

stdin: Item under review: CTAIHYNFMCN [TP53_Y234_T231A_YF] . Reported phosphorylation enrichment?
stdout: 0.525

stdin: Item under review: SVDRDYVLKSA [HTATIP2_Y111_R106S] . Reported phosphorylation enrichment?
stdout: 0.426

stdin: Item under review: KFDLMYAKHAF [TUBA1A_Y399_R402H] . Reported phosphorylation enrichment?
stdout: 0.44

---

# tgt: Hck (UniProt P08631)
# Sequence (P08631 whole entry, looked up): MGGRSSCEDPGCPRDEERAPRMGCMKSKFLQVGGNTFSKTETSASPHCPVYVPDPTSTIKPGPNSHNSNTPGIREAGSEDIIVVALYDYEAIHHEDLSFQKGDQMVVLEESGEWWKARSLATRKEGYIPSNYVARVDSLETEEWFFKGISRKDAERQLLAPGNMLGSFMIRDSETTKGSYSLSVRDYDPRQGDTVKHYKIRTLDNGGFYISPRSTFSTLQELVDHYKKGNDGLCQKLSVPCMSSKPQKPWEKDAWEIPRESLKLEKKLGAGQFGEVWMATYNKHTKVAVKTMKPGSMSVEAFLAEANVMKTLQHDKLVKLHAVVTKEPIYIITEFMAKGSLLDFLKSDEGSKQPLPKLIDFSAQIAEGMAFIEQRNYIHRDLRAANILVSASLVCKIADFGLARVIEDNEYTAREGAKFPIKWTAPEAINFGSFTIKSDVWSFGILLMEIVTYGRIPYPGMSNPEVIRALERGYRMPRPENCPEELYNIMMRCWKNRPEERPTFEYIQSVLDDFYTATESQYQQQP
# assay.remarks: phosphorylation enrichment, bacterial display (enrichment ratio); higher = better substrate or ligand; peptides without Tyr show the background
value.kind: phosphorylation enrichment
Respond using a number only.

Sample answers from the record:
>  <biosequence>
RPGSGYTNIMQ [PKLR_Y564_R569Q]

>  <phosphorylation enrichment>
0.548

$$$$
>  <biosequence>
SSTASYFKAPG [RFX2_Y108_E110K]

>  <phosphorylation enrichment>
0.431

$$$$
>  <biosequence>
LYSINYLHFGE [KDM4C_Y201]

>  <phosphorylation enrichment>
3.5

$$$$

stdin: Item under review: INNIDYYKNTT [FGFR2_Y656_K659N] . Reported phosphorylation enrichment?
stdout: 0.462

stdin: Item under review: FSKTQYNQVPS [CXADR_Y318_YF] . Reported phosphorylation enrichment?
stdout: 0.598

stdin: Item under review: QLAPQYTFAQG [FLNA_Y1761_YF] . Reported phosphorylation enrichment?
stdout: 0.443

---

# tgt: FGFR1 (UniProt P11362)
# Sequence (P11362 whole entry, looked up): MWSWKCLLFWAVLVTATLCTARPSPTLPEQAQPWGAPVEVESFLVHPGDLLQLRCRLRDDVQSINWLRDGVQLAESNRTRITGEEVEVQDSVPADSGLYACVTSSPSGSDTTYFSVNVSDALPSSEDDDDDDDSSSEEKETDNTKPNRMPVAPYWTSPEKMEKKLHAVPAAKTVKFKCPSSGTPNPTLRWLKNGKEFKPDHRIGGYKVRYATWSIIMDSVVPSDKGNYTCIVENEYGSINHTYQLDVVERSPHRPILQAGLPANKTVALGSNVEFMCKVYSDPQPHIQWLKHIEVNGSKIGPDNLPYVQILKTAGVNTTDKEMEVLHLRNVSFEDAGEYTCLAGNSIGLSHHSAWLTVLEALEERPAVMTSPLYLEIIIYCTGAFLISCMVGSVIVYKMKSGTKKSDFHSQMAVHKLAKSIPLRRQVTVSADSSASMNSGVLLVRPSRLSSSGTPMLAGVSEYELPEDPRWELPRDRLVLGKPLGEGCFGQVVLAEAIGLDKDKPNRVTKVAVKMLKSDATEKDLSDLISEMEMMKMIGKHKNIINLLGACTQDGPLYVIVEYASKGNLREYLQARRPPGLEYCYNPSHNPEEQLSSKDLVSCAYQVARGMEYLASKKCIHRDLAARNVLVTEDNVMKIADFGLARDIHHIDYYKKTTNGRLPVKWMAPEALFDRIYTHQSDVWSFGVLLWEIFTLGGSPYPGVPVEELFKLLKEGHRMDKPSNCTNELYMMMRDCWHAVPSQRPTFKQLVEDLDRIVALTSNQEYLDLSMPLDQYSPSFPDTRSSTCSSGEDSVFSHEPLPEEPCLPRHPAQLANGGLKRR
# assay.remarks: phosphorylation enrichment, bacterial display (enrichment ratio); higher = better substrate or ligand; peptides without Tyr show the background
value.kind: phosphorylation enrichment
Respond using a number only.

Sample answers from the record:
>  <biosequence>
PPAPRYHDSAV [LZTR1_Y119_H121D]

>  <phosphorylation enrichment>
0.532

$$$$
>  <biosequence>
EVVGRYSVHYA [MLH1_Y183_N187Y]

>  <phosphorylation enrichment>
0.462

$$$$
>  <biosequence>
EYDRLYEEYTR [PIK3R1_Y467]

>  <phosphorylation enrichment>
0.826

$$$$
>  <biosequence>
EGQKIYIDDNN [PIP4K2A_Y246]

>  <phosphorylation enrichment>
0.584

$$$$
>  <biosequence>
IGVGSYSVCKR [RPS6KA3_Y433]

>  <phosphorylation enrichment>
0.354

$$$$

stdin: Item under review: SSTASYFKAPG [RFX2_Y108_E110K] . Reported phosphorylation enrichment?
stdout: 0.548

stdin: Item under review: GSSKIYFLHPD [TLR5_Y108] . Reported phosphorylation enrichment?
stdout: 2.48

stdin: Item under review: LFDPDFMKVIL [CYP4A22_Y104_Y104F_YF] . Reported phosphorylation enrichment?
stdout: 1.15

stdin: Item under review: YAADYYKLLGN [ROR2_Y646] . Reported phosphorylation enrichment?
stdout: 12.5

stdin: Item under review: SHMVNYQPYRK [TEX37_Y25_D24N] . Reported phosphorylation enrichment?
stdout: 0.394

stdin: Item under review: LFRFGYANTSE [SI_Y1233_C1229Y_YF] . Reported phosphorylation enrichment?
stdout: 0.619

---

# tgt: FGFR3 (UniProt P22607)
# Sequence (P22607 whole entry, looked up): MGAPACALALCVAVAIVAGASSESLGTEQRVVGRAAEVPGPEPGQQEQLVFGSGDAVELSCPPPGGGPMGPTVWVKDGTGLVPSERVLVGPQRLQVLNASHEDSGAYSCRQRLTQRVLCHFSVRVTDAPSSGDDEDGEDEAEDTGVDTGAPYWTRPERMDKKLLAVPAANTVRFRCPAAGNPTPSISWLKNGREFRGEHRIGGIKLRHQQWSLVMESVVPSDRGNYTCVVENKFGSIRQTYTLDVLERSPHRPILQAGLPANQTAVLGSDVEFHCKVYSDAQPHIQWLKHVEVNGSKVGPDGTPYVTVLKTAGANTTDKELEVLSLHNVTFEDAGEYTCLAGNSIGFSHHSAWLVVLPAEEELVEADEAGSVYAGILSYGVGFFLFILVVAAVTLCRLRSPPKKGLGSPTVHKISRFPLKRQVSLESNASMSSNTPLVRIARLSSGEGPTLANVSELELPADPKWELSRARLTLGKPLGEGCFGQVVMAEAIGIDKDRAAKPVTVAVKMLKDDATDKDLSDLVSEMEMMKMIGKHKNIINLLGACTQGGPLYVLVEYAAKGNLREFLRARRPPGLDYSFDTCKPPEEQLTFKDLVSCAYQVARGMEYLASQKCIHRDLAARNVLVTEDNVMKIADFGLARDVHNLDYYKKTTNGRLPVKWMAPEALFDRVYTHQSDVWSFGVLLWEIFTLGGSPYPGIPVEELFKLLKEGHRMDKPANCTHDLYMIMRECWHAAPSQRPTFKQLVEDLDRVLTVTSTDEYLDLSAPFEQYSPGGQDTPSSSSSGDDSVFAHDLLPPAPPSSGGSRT
# assay.remarks: phosphorylation enrichment, bacterial display (enrichment ratio); higher = better substrate or ligand; peptides without Tyr show the background
Use 1.0 when the recorded phosphorylation enrichment is no lower than 0.7; use 0.0 when it is lower.

stdin: API: above_or_equal(metric=phosphorylation enrichment, cutoff=0.7) for item RFVSRYIFNRE [HLA-DQB1_Y62_T60S_YF]
stdout: 1.0

stdin: API: above_or_equal(metric=phosphorylation enrichment, cutoff=0.7) for item DKATEYIQYVR [MAX_Y70_M74V]
stdout: 0.0

stdin: API: above_or_equal(metric=phosphorylation enrichment, cutoff=0.7) for item LSIQCYLRALD [HMGCS2_Y262]
stdout: 1.0

stdin: API: above_or_equal(metric=phosphorylation enrichment, cutoff=0.7) for item LLEGKYEWQEV [CDKN1B_Y74_P69L]
stdout: 1.0

stdin: API: above_or_equal(metric=phosphorylation enrichment, cutoff=0.7) for item CSRRLYQLTKL [AR_Y858_F857L]
stdout: 0.0

stdin: API: above_or_equal(metric=phosphorylation enrichment, cutoff=0.7) for item YSKDIYKRVTG [PANK2_Y405_N404I]
stdout: 0.0

stdin: API: above_or_equal(metric=phosphorylation enrichment, cutoff=0.7) for item LYEDHYLLGTS [ASS1_Y87_R86H]
stdout: 1.0

stdin: API: above_or_equal(metric=phosphorylation enrichment, cutoff=0.7) for item VHNLDYYKQTT [FGFR3_Y647_K650Q]
stdout: 1.0

stdin: API: above_or_equal(metric=phosphorylation enrichment, cutoff=0.7) for item ADRSCYDLSCR [GARS1_Y467_H472R]
stdout: 0.0

stdin: API: above_or_equal(metric=phosphorylation enrichment, cutoff=0.7) for item TFRPPYYHRNC [HGD_Y333]
stdout: 0.0

stdin: API: above_or_equal(metric=phosphorylation enrichment, cutoff=0.7) for item MNPPPYSQFLS [FGF23_Y154]
stdout: 0.0

stdin: API: above_or_equal(metric=phosphorylation enrichment, cutoff=0.7) for item KSMSVYCTPNK [ATP2A2_Y497]
stdout: 0.0

stdin: API: above_or_equal(metric=phosphorylation enrichment, cutoff=0.7) for item FRIDHYLGKEM [G6PD_Y202_YF]
stdout: 0.0

---

# Tested on: c-Src
# assay.remarks: phosphorylation enrichment, bacterial display (enrichment ratio); higher = better substrate or ligand; peptides without Tyr show the background
value.kind: phosphorylation enrichment
Respond using a number only.

>  <biosequence>
SRNKPYISWPS [CDC42BPB_Y1638]

>  <phosphorylation enrichment>
0.483

$$$$
>  <biosequence>
RLLVVYPWNQR [HBB_Y36_T39N]

>  <phosphorylation enrichment>
0.351

$$$$
>  <biosequence>
RGEKQYLAAPL [ALOX12_Y295]

>  <phosphorylation enrichment>
0.505

$$$$
>  <biosequence>
FRRITYHNWRH [PDE6B_Y556_YF]

>  <phosphorylation enrichment>
0.535

$$$$
>  <biosequence>
LSVEIHDRREF [ITGB7_Y753_Y753H_YF]

>  <phosphorylation enrichment>
0.795

$$$$
>  <biosequence>
RESFKYFPSSL [CXXC1_Y218_YF]

>  <phosphorylation enrichment>
0.852

$$$$
>  <biosequence>
DGMADCSDPSY [CDC5L_Y459_Y459C]

>  <phosphorylation enrichment>
0.425

$$$$
>  <biosequence>
HFIKLYEEKTG [PARP1_Y618_M615I]

>  <phosphorylation enrichment>
0.392

$$$$
>  <biosequence>
LGKLIYPVGFW [NTHL1_Y177]

>  <phosphorylation enrichment>
1.35

$$$$
>  <biosequence>
CTTIHYNYMSN [TP53_Y234_C238S]

>  <phosphorylation enrichment>
0.399

$$$$

stdin: Item under review: REGAKYVSHGT [ASS1_Y113_A118T] . Reported phosphorylation enrichment?
stdout: 0.411

stdin: Item under review: LERFIYNREEL [HLA-DPB1_Y59_F64L_YF] . Reported phosphorylation enrichment?
stdout: 2.42

stdin: Item under review: LFVDVYGPSVP [NUBPL_Y109_D105Y_YF] . Reported phosphorylation enrichment?
stdout: 1.47

This collection of values is drawn from the supplement of paper PMC10065799.
